Quick reference: MIC of the listed items.
Test system: Colistin-resistant A. baumannii Ab99
Type: cell-based
Where a SMILES comes first, the peptide text is derived from it. Bridges are numbered along the chain shown (N, C = ends). [ ]: non-standard residue; d: D form. The star is where a group is joined. ξ: configuration not given here. dAoc(2) = CCCCCC[C@@H](N)C(=O)O; ξLac(3-iPr) = CC(C)CC(O)C(=O)O; Heptanoyl = CCCCCCC(=O)*; Nle = CCCC[C@H](N)C(=O)O; Octanoyl = CCCCCCCC(=O)*; Dab = NCC[C@H](N)C(=O)O

[
  {
    "molecule": "CCCCCCC(=O)N[C@@H](Cc1c[nH]cn1)C(=O)N[C@H](C(=O)N[C@@H](CCN)C(=O)N[C@H]1CSSC[C@H](C(N)=O)NC(=O)[C@H](Cc2c[nH]cn2)NC(=O)[C@H](CCN)NC(=O)[C@H](CCCC)NC(=O)[C@@H](CCCCCC)NC(=O)[C@H](CCN)NC1=O)[C@@H](C)O [Example 6] (Heptanoyl-HT[Dab]C[Dab][dAoc(2)][Nle][Dab]H[dC]-NH2; disulfide 4-10)",
    "MIC, µg/mL": 32
  },
  {
    "molecule": "CCCCCC[C@@H](N)C(=O)N[C@H](C(=O)N[C@@H](CCN)C(=O)N[C@H]1CSSC[C@H](C(N)=O)NC(=O)[C@H](CCN)NC(=O)[C@H](CCN)NC(=O)C(CC(C)C)OC(=O)[C@@H](CCCCCC)NC(=O)[C@H](CCN)NC1=O)[C@@H](C)O (stereo partly shown) [Example 3] (H-[dAoc(2)]T[Dab]C[Dab][dAoc(2)][ξLac(3-iPr)][Dab][Dab][dC]-NH2; disulfide 4-10)",
    "MIC, µg/mL": 8
  },
  {
    "molecule": "CCCCCCC(=O)N[C@@H](CCN)C(=O)N[C@H](C(=O)N[C@@H](CCN)C(=O)N[C@H]1CSSC[C@H](C(N)=O)NC(=O)[C@H](CCN)NC(=O)[C@H](CCN)NC(=O)C(CC(C)C)OC(=O)[C@@H](CCCCCC)NC(=O)[C@H](CCN)NC1=O)[C@@H](C)O (stereo partly shown) [Example 2] (Heptanoyl-[Dab]T[Dab]C[Dab][dAoc(2)][ξLac(3-iPr)][Dab][Dab][dC]-NH2; disulfide 4-10)",
    "MIC, µg/mL": 16
  },
  {
    "molecule": "CCCCCCCC(=O)N[C@@H](CCN)C(=O)N[C@H](C(=O)N[C@@H](CCN)C(=O)N[C@H]1CSSC[C@H](C(N)=O)NC(=O)[C@H](CCN)NC(=O)[C@H](CCN)NC(=O)C(CC(C)C)OC(=O)[C@@H](CCCCCC)NC(=O)[C@H](CCN)NC1=O)[C@@H](C)O (stereo partly shown) [Example 4] (Octanoyl-[Dab]T[Dab]C[Dab][dAoc(2)][ξLac(3-iPr)][Dab][Dab][dC]-NH2; disulfide 4-10)",
    "MIC, µg/mL": 8
  }
]

----------
Tested on: Pseudomonas aeruginosa 21 R
testSettings: P. aeruginosa 21R
Where a SMILES comes first, the peptide text is derived from it. Bridges are numbered along the chain shown (N, C = ends). [ ]: non-standard residue; d: D form. ξ: configuration not given here. dAoc(2) = CCCCCC[C@@H](N)C(=O)O; ξLac(3-iPr) = CC(C)CC(O)C(=O)O; Dab = NCC[C@H](N)C(=O)O

[
  {
    "compound": "CCCCCC[C@@H](N)C(=O)N[C@H](C(=O)N[C@@H](CCN)C(=O)N[C@H]1CSSC[C@H](C(N)=O)NC(=O)[C@H](CCN)NC(=O)[C@H](CCN)NC(=O)C(CC(C)C)OC(=O)[C@@H](CCCCCC)NC(=O)[C@H](CCN)NC1=O)[C@@H](C)O (stereo partly shown) [Example 3] (H-[dAoc(2)]T[Dab]C[Dab][dAoc(2)][ξLac(3-iPr)][Dab][Dab][dC]-NH2; disulfide 4-10)",
    "MIC (µg/mL)": 0.125
  }
]

----------
Quick reference: MIC of the listed items.
Tested on: Pseudomonas aeruginosa 38a
Assay type: cell-based
testSettings: 38a
Where a SMILES comes first, the peptide text is derived from it. Bridges are numbered along the chain shown (N, C = ends). [ ]: non-standard residue; d: D form. The star is where a group is joined. ξ: configuration not given here. dAoc(2) = CCCCCC[C@@H](N)C(=O)O; ξLac(3-iPr) = CC(C)CC(O)C(=O)O; Heptanoyl = CCCCCCC(=O)*; Nle = CCCC[C@H](N)C(=O)O; Dab = NCC[C@H](N)C(=O)O
recordedMetric: MIC (µg/mL)

[
  {
    "compound": "CCCCCCC(=O)N[C@@H](CCN)C(=O)N[C@H](C(=O)N[C@@H](CCN)C(=O)N[C@H]1CSSC[C@H](C(N)=O)NC(=O)[C@H](CCN)NC(=O)[C@H](CCN)NC(=O)[C@H](CCCC)NC(=O)[C@@H](CCCCCC)NC(=O)[C@H](CCN)NC1=O)[C@@H](C)O [Example 1] (Heptanoyl-[Dab]T[Dab]C[Dab][dAoc(2)][Nle][Dab][Dab][dC]-NH2; disulfide 4-10)",
    "recordedMetric": "MIC",
    "resultValue": 0.03
  },
  {
    "compound": "CCCCCCC(=O)N[C@@H](Cc1c[nH]cn1)C(=O)N[C@H](C(=O)N[C@@H](CCN)C(=O)N[C@H]1CSSC[C@H](C(N)=O)NC(=O)[C@H](Cc2c[nH]cn2)NC(=O)[C@H](CCN)NC(=O)[C@H](CCCC)NC(=O)[C@@H](CCCCCC)NC(=O)[C@H](CCN)NC1=O)[C@@H](C)O [Example 6] (Heptanoyl-HT[Dab]C[Dab][dAoc(2)][Nle][Dab]H[dC]-NH2; disulfide 4-10)",
    "recordedMetric": "MIC",
    "resultValue": 32
  },
  {
    "compound": "CCCCCCC(=O)N[C@@H](CCN)C(=O)N[C@H](C(=O)N[C@@H](CCN)C(=O)N[C@H]1CSSC[C@H](C(N)=O)NC(=O)[C@H](CCN)NC(=O)[C@H](CCN)NC(=O)C(CC(C)C)OC(=O)[C@@H](CCCCCC)NC(=O)[C@H](CCN)NC1=O)[C@@H](C)O (stereo partly drawn) [Example 2] (Heptanoyl-[Dab]T[Dab]C[Dab][dAoc(2)][ξLac(3-iPr)][Dab][Dab][dC]-NH2; disulfide 4-10)",
    "recordedMetric": "MIC",
    "resultValue": 0.125
  }
]

----------
Tested on: Pseudomonas aeruginosa 21 R
testSettings: P. aeruginosa 21R
Where a SMILES comes first, the peptide text is derived from it. Bridges are numbered along the chain shown (N, C = ends). [ ]: non-standard residue; d: D form. The star is where a group is joined. ξ: configuration not given here. dAoc(2) = CCCCCC[C@@H](N)C(=O)O; ξLac(3-iPr) = CC(C)CC(O)C(=O)O; Heptanoyl = CCCCCCC(=O)*; Nle = CCCC[C@H](N)C(=O)O; Octanoyl = CCCCCCCC(=O)*; Dab = NCC[C@H](N)C(=O)O
Quick reference: MIC of the listed items.

[
  {
    "compound": "CCCCCCC(=O)N[C@@H](CCN)C(=O)N[C@H](C(=O)N[C@@H](CCN)C(=O)N[C@H]1CSSC[C@H](C(N)=O)NC(=O)[C@H](CCN)NC(=O)[C@H](CCN)NC(=O)C(CC(C)C)OC(=O)[C@@H](CCCCCC)NC(=O)[C@H](CCN)NC1=O)[C@@H](C)O (stereo partly drawn) [Example 2] (Heptanoyl-[Dab]T[Dab]C[Dab][dAoc(2)][ξLac(3-iPr)][Dab][Dab][dC]-NH2; disulfide 4-10)",
    "MIC": "2 µg/mL"
  },
  {
    "compound": "CCCCCCCC(=O)N[C@@H](CCN)C(=O)N[C@H](C(=O)N[C@@H](CCN)C(=O)N[C@H]1CSSC[C@H](C(N)=O)NC(=O)[C@H](CCN)NC(=O)[C@H](CCN)NC(=O)C(CC(C)C)OC(=O)[C@@H](CCCCCC)NC(=O)[C@H](CCN)NC1=O)[C@@H](C)O (stereo partly drawn) [Example 4] (Octanoyl-[Dab]T[Dab]C[Dab][dAoc(2)][ξLac(3-iPr)][Dab][Dab][dC]-NH2; disulfide 4-10)",
    "MIC": "2 µg/mL"
  },
  {
    "compound": "CCCCCCC(=O)N[C@@H](CCN)C(=O)N[C@H](C(=O)N[C@@H](CCN)C(=O)N[C@H]1CSSC[C@H](C(N)=O)NC(=O)[C@H](CCN)NC(=O)[C@H](CCN)NC(=O)[C@H](CCCC)NC(=O)[C@@H](CCCCCC)NC(=O)[C@H](CCN)NC1=O)[C@@H](C)O [Example 1] (Heptanoyl-[Dab]T[Dab]C[Dab][dAoc(2)][Nle][Dab][Dab][dC]-NH2; disulfide 4-10)",
    "MIC": "0.25 µg/mL"
  }
]
